The measurements presented in this section are drawn from paper PMC8809517.

- test system: T1, GFP-9S library array, motif 4 ND N98F;D124W (synthetic construct, N98F;D124W)
- T1 chain: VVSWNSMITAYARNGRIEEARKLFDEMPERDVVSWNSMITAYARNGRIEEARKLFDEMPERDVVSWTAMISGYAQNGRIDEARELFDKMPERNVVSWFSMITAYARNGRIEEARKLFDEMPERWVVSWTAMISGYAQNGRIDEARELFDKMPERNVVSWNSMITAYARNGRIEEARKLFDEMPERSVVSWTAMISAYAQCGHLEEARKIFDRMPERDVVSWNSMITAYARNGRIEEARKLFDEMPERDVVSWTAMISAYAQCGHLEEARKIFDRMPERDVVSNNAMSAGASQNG
- protocol: high-throughput RNA pulldown from lysate on Ni-NTA beads; HRP: 50 mM Tris pH 8, 150 mM NaCl, 1 mM beta-mercaptoethanol, 50 ug/ml BSA, 3 ug/ml yeast RNA, 0.5% heparin; ITC and FP: Tris pH 8, 200 mM KCl, 5% glycerol; MST: 50 mM Tris pH 8, 200 mM NaCl, 1 mM DTT, BSA, heparin, 0.05% Tween 20
- conditions: tags: N-terminal His-eGFP; label: 5' IRDye 800CW
Listed next: entries and their corresponding pKd.
The read-out pKd is expressed as -log10 of concentration in moles per litre.

>  <binder>
AUUAAACGUGA (ssRNA) [IR-rpoA-A]

>  <pKd>
6.63

$$$$

Now for a further binder.
Lookup: Give a short answer stating reported pKd for AUUAUACGUGA (ssRNA) [IR-rpoA-U] .
Found: 6.44
